pIC50: −log10 of the molar value.
Collected literature values of pIC50 measured for human eIF4E protein (Homo sapiens, UniProt P06730).

1) O=C(O)C1COCCN1c1nc(-c2ccc(-c3ccc(F)cc3)cc2)c(-c2ccccc2)s1 (centres unmarked) : > 5.30

Query block: Notebook entry, human eIF4E protein (Homo sapiens, UniProt P06730) assay: pIC50 of "O=C(O)c1cc(-c2nc(-c3ccc(Cl)c(Cl)c3)cs2)ccc1-c1cc(OC(F)(F)F)ccc1Cl" = ?
Result block: 6.22

Query block: Notebook entry, human eIF4E protein (Homo sapiens, UniProt P06730) assay: pIC50 of "CCOc1cccc(-c2nc(Nc3ncc(-c4cccs4)cc3C(=O)O)sc2CC(C)C)c1" = ?
Result block: ≥ 6.30

Query block: Notebook entry, human eIF4E protein (Homo sapiens, UniProt P06730) assay: pIC50 of "O=C(O)c1cc(-c2nc(-c3cccnc3)cs2)ccc1-c1ccccc1[N+](=O)[O-]" = ?
Result block: < 4.10

Query block: Notebook entry, human eIF4E protein (Homo sapiens, UniProt P06730) assay: pIC50 of "O=C(O)C1(CNc2nc(-c3ccc(Oc4ccccc4)cc3)cs2)CC1" = ?
Result block: < 4.60

Query block: Notebook entry, human eIF4E protein (Homo sapiens, UniProt P06730) assay: pIC50 of CC(CC(=O)O)Nc1nc(-c2ccc(-c3cnco3)cc2)c(-c2cccnc2)s1 (centres unmarked) = ?
Result block: < 4.60

---

pIC50: −log10 of the molar value.
Collected literature values of pIC50 measured for human eIF4E protein (Homo sapiens, UniProt P06730).

1. O=C(NCCc1cccnc1)c1ccc(-c2ccc(-c3nc(-c4ccc(Cl)c(Cl)c4)cs3)cc2C(=O)O)cc1 : 5.02
2. COCCOc1ccc(-c2nc(Nc3ncc(-c4ccc(C)s4)cc3C(=O)O)sc2CC(C)C)cc1F : ≥ 6.30

Query block: Notebook entry, human eIF4E protein (Homo sapiens, UniProt P06730) assay: pIC50 of "COCCOCCOc1ccc(-c2nc(Nc3ncc(-c4cccs4)cc3C(=O)O)sc2CC(C)C)cc1F" = ?
Result block: 6.00 to 6.30

Query block: Notebook entry, human eIF4E protein (Homo sapiens, UniProt P06730) assay: pIC50 of "O=C(O)c1cc(-c2nc(-c3cccc(Br)c3)cs2)ccc1-c1ccccc1[N+](=O)[O-]" = ?
Result block: 5.52

Query block: Notebook entry, human eIF4E protein (Homo sapiens, UniProt P06730) assay: pIC50 of O=C(O)C1CN(c2nc(-c3ccc(-c4cnco4)cc3)c(-c3cccc4[nH]ccc34)s2)CCO1 (stereo not shown) = ?
Result block: < 4.60

Query block: Notebook entry, human eIF4E protein (Homo sapiens, UniProt P06730) assay: pIC50 of "COc1cc(-c2nc(Nc3ncc(-c4cccs4)cc3C(=O)O)sc2CCC(C)C)ccc1C(F)(F)F" = ?
Result block: ≥ 6.30

Query block: Notebook entry, human eIF4E protein (Homo sapiens, UniProt P06730) assay: pIC50 of "COCCCOc1ccc(-c2nc(Nc3ncc(-c4cccs4)cc3C(=O)O)sc2CC(C)C)cc1F" = ?
Result block: ≥ 6.30

Query block: Notebook entry, human eIF4E protein (Homo sapiens, UniProt P06730) assay: pIC50 of "O=C(O)c1cc(-c2nc(-c3ccc(Cl)c(Cl)c3)cs2)ccc1-c1ccc(C(F)(F)F)cc1C(F)(F)F" = ?
Result block: 5.52

Query block: Notebook entry, human eIF4E protein (Homo sapiens, UniProt P06730) assay: pIC50 of "CC(C)Cc1sc(Nc2ncc(-c3cccs3)cc2C(=O)O)nc1-c1ccc(OC2CC2)cc1" = ?
Result block: ≥ 6.30

Query block: Notebook entry, human eIF4E protein (Homo sapiens, UniProt P06730) assay: pIC50 of CC(CC(=O)O)Nc1nc(-c2ccc(-c3cnco3)cc2)c(-c2ccccc2)s1 (stereo not shown) = ?
Result block: < 4.60

Query block: Notebook entry, human eIF4E protein (Homo sapiens, UniProt P06730) assay: pIC50 of "O=C(O)C1CN(c2nc(-c3ccc(-c4ccc(F)cc4)cc3)c(-c3ccccc3)s2)C1" = ?
Result block: 4.60 to 5.30

Query block: Notebook entry, human eIF4E protein (Homo sapiens, UniProt P06730) assay: pIC50 of CC(CC(=O)O)Nc1nc(-c2ccc(-c3cnco3)cc2)c(-c2cccc3[nH]ccc23)s1 (stereo not shown) = ?
Result block: < 4.60

Query block: Notebook entry, human eIF4E protein (Homo sapiens, UniProt P06730) assay: pIC50 of "O=C(NCCN1CCOCC1)c1ccc(-c2ccc(-c3nc(-c4ccc(Cl)c(Cl)c4)cs3)cc2C(=O)O)cc1" = ?
Result block: < 4.10

Query block: Notebook entry, human eIF4E protein (Homo sapiens, UniProt P06730) assay: pIC50 of O=C(O)CC1CCCN1c1nc(-c2ccc(-c3ccc(F)cc3)cc2)c(-c2ccccc2)s1 (stereo not shown) = ?
Result block: > 5.30

Query block: Notebook entry, human eIF4E protein (Homo sapiens, UniProt P06730) assay: pIC50 of CCCC(CNc1nc(-c2cccnc2)c(-c2ccc(-c3cnco3)cc2)s1)C(=O)O (stereo not shown) = ?
Result block: < 4.60

Query block: Notebook entry, human eIF4E protein (Homo sapiens, UniProt P06730) assay: pIC50 of "CCc1ccc(-c2nc(Nc3ncc(-c4cccs4)cc3C(=O)O)sc2CC(C)C)cc1OC" = ?
Result block: ≥ 6.30

---

pIC50: −log10 of the molar value.
Collected literature values of pIC50 measured for UniProt:P06730.

1) Cc1ccc(-c2cnc(Nc3nc(-c4ccc(OC(F)F)cc4)c(CC(C)C)s3)c(C(=O)O)c2)s1 : < 6.00

Query block: Any idea what its pIC50 is? The molecule is "O=C(O)c1cc(-c2nc(-c3ccc(Cl)c(Cl)c3)cs2)ccc1-c1cc(Cl)ccc1Cl"
Result block: 5.77

Query block: Any idea what its pIC50 is? The molecule is "CC(C)Cc1sc(Nc2ncc(-c3cccs3)cc2C(=O)O)nc1-c1ccc(OCCOC(C)C)c(F)c1"
Result block: ≥ 6.30

Query block: Any idea what its pIC50 is? The molecule is "CC(=O)c1cccc(-c2ccc(-c3nc(-c4ccc(Cl)c(Cl)c4)cs3)cc2C(=O)O)c1"
Result block: 5.11

Query block: Any idea what its pIC50 is? The molecule is "O=C(O)C[C@@H]1CCCN1c1nc(-c2ccc(-c3ccc(F)cc3)cc2)c(-c2ccccc2)s1"
Result block: > 5.30

Query block: Any idea what its pIC50 is? The molecule is O=C(O)C1CCCN(c2nc(-c3ccc(Oc4ccccc4)cc3)c(-c3cncnc3)s2)C1 (stereo not shown)
Result block: < 4.60

Query block: Any idea what its pIC50 is? The molecule is "O=C(O)C1CN(c2nc(-c3ccc(-c4cnco4)cc3)c(-c3cncnc3)s2)C1"
Result block: < 4.60

Query block: Any idea what its pIC50 is? The molecule is "CC(C)Cc1sc(Nc2ncc(-c3cccs3)cc2C(=O)O)nc1-c1ccc(OC(F)(F)F)c(F)c1"
Result block: ≥ 6.30

Query block: Any idea what its pIC50 is? The molecule is "Cc1ccccc1-c1ccc(-c2nc(-c3ccc(Cl)c(Cl)c3)cs2)cc1C(=O)O"
Result block: 5.23

---

pIC50: −log10 of the molar value.
Collected literature values of pIC50 measured for human eIF4E protein (Homo sapiens).

Worked cases, answers included:
1) O=C(O)c1cc(-c2nc(-c3ccc(Cl)c(Cl)c3)cs2)ccc1-c1sccc1Cl : 5.77
2) CC(CC(=O)O)Nc1nc(-c2ccc(Oc3ccccc3)cc2)c(-c2ccccc2)s1 (stereo not shown) : 4.60 to 5.30
3) CC(CC(=O)O)Nc1nc(-c2ccc(-c3ccc(F)cc3)cc2)c(-c2cccc3[nH]ccc23)s1 (stereo not shown) : 4.60 to 5.30
4) O=C(O)c1cc(-c2nc(-c3ccc(F)c(Cl)c3)cs2)ccc1-c1ccccc1[N+](=O)[O-] : 5.30
5) CC(CNc1nc(-c2ccc(Oc3ccccc3)cc2)cs1)C(=O)O (stereo not shown) : < 4.60

Query block: Notebook entry, human eIF4E protein (Homo sapiens) assay: pIC50 of "CC(C)[C@@H](CC(=O)O)Nc1nc(-c2ccc(-c3ccc(F)cc3)cc2)c(Br)s1" = ?
Result block: > 5.30

Query block: Notebook entry, human eIF4E protein (Homo sapiens) assay: pIC50 of O=C(O)CC1CCCN1c1nc(-c2ccc(-c3ccc(F)cc3)cc2)cs1 (stereo not shown) = ?
Result block: < 4.60

Query block: Notebook entry, human eIF4E protein (Homo sapiens) assay: pIC50 of "COc1c(Cl)cc(-c2nc(Nc3ncc(-c4cccs4)cc3C(=O)O)sc2CC(C)C)cc1Cl" = ?
Result block: ≥ 6.30

Query block: Notebook entry, human eIF4E protein (Homo sapiens) assay: pIC50 of CC(CNc1nc(-c2ccc(-c3ccc(F)cc3)cc2)cs1)C(=O)O (stereo not shown) = ?
Result block: < 4.60

Query block: Notebook entry, human eIF4E protein (Homo sapiens) assay: pIC50 of "COc1cc(C)cc(-c2nc(Nc3ncc(-c4cccs4)cc3C(=O)O)sc2CC(C)C)c1" = ?
Result block: ≥ 6.30

Query block: Notebook entry, human eIF4E protein (Homo sapiens) assay: pIC50 of "O=C(O)c1cc(-c2nc(-c3ccc(Cl)cc3)cs2)ccc1-c1ccccc1[N+](=O)[O-]" = ?
Result block: 5.28

Query block: Notebook entry, human eIF4E protein (Homo sapiens) assay: pIC50 of "O=C(O)C1(CNc2nc(-c3ccc(-c4cnco4)cc3)c(-c3cccc4[nH]ccc34)s2)CC1" = ?
Result block: < 4.60

Query block: Notebook entry, human eIF4E protein (Homo sapiens) assay: pIC50 of "O=C(O)c1cc(-c2nc(-c3cc(C(F)(F)F)cc(C(F)(F)F)c3)cs2)ccc1-c1ccccc1[N+](=O)[O-]" = ?
Result block: 5.60

Query block: Notebook entry, human eIF4E protein (Homo sapiens) assay: pIC50 of CC(CNc1nc(-c2ccc(Oc3ccccc3)cc2)c(-c2cccc3[nH]ccc23)s1)C(=O)O (stereo not shown) = ?
Result block: < 4.60

Query block: Notebook entry, human eIF4E protein (Homo sapiens) assay: pIC50 of O=C(O)C1CN(c2nc(-c3ccc(-c4ccc(F)cc4)cc3)c(-c3cccc4[nH]ccc34)s2)CCO1 (stereo not shown) = ?
Result block: > 5.30

Query block: Notebook entry, human eIF4E protein (Homo sapiens) assay: pIC50 of "O=C(O)[C@@H]1CCCN(c2nc(-c3ccc(-c4ccc(F)cc4)cc3)c(-c3ccccc3)s2)C1" = ?
Result block: > 5.30

Query block: Notebook entry, human eIF4E protein (Homo sapiens) assay: pIC50 of "COCCOc1ccc(-c2nc(Nc3ncc(-c4cccs4)cc3C(=O)OC)sc2CC(C)C)cc1F" = ?
Result block: < 6.00

Query block: Notebook entry, human eIF4E protein (Homo sapiens) assay: pIC50 of "O=C(NCCc1ccccc1)c1ccc(-c2ccc(-c3nc(-c4ccc(Cl)c(Cl)c4)cs3)cc2C(=O)O)cc1" = ?
Result block: 5.54

Query block: Notebook entry, human eIF4E protein (Homo sapiens) assay: pIC50 of O=C(O)CC1CCCN1c1nc(-c2ccc(-c3ccc(F)cc3)cc2)c(-c2cccnc2)s1 (stereo not shown) = ?
Result block: < 4.60

Query block: Notebook entry, human eIF4E protein (Homo sapiens) assay: pIC50 of "CC1(C(=O)O)CN(c2nc(-c3ccc(-c4ccc(F)cc4)cc3)cs2)C1" = ?
Result block: < 4.60

Query block: Notebook entry, human eIF4E protein (Homo sapiens) assay: pIC50 of "O=C(O)c1cc(-c2nc(-c3ccc(Cl)c(Cl)c3)cs2)ccc1-c1ccccc1" = ?
Result block: 5.23

Query block: Notebook entry, human eIF4E protein (Homo sapiens) assay: pIC50 of O=C(O)C1CC(CNc2nc(-c3ccc(-c4ccc(F)cc4)cc3)c(-c3cccc4[nH]ccc34)s2)C1 (stereo not shown) = ?
Result block: 4.60 to 5.30

Query block: Notebook entry, human eIF4E protein (Homo sapiens) assay: pIC50 of CC1(C(=O)O)CCCN(c2nc(-c3ccc(-c4cnco4)cc3)c(-c3cncnc3)s2)C1 (stereo not shown) = ?
Result block: < 4.60

Query block: Notebook entry, human eIF4E protein (Homo sapiens) assay: pIC50 of "COc1cccc(-c2ccc(-c3nc(-c4ccc(Cl)c(Cl)c4)cs3)cc2C(=O)O)c1" = ?
Result block: 5.30
